B1: Azoarcus group I ribozyme (parent)
chain: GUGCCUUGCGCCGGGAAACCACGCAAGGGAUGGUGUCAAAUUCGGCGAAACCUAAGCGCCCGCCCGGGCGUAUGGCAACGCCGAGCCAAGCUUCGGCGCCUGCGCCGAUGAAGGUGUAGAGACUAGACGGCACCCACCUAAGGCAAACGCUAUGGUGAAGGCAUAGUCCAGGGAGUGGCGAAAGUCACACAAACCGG

Variants of: B1
Experiment Summary: reverse-splicing fitness (ratio to wild type); higher = more active; in vitro selection; Mg2+ level not given
Would you mind classing the entries by reverse-splicing fitness? Ranges: lower bin (below 0.009), middle bin (0.009 to below 0.02), upper bin (0.02 or more)

Sort C82G A111G A120U A145C C150A into one of the categories.
lower bin

For C82A A145C C169U U176A , which reverse-splicing fitness bin applies?
middle bin

Please indicate the class for C82U A120C A145U C169G based on its reverse-splicing fitness.
lower bin

For C82U A111U A120C C150U U176A , which reverse-splicing fitness bin applies?
middle bin

Band for C82U A111U A120C A145G C150A C169U ?
middle bin

Category of C82A A120C A145U C169G U176A :
middle bin

In plain terms, what class is C82G A111G A120G A145U C150U C169G U176A ?
middle bin

Determine which band this variant sits in: A120G A145U C150U
upper bin

Sort into band: C82G A111G C150U C169G
middle bin

Please report the category associated with C82G A111U C150G C169G U176G , nothing else.
lower bin

Entry C82U A111C A120C A145G C150G C169A U176A belongs to which category?
middle bin

Which bin should I file A111G A145G C150U C169G U176C under?
upper bin

Please classify: C82A A111U A120C C150U C169A U176C
middle bin

The entry to classify is C82G A111G A120U C150U C169U ; which class holds it?
lower bin

Which category does the recorded reverse-splicing fitness put C82A A111C A145U C169A U176A in?
middle bin

Tag the class for A111U A145G C150A C169G U176C
upper bin

Textbook exercise: identify the category of the variant given here, A111G A120G A145U C150A C169U U176G , according to its measured value.
lower bin

Which class does C82G A111G A120U A145U C150A C169U U176G fall in?
lower bin

Where would C82A A120U A145U C150U U176G land among the classes by reported reverse-splicing fitness?
lower bin

For this variant, which bin applies? C82U C169A U176C
middle bin

Classify this variant: C82A A111C A120G A145U C150A C169G U176G
lower bin

Category of C82A A111G A145G C150A C169G , please.
middle bin

Bin? A111G A120C A145C C150G
upper bin

Hi there! Could you help me figure out the category for C82U A111U A145U C150A U176C please?
upper bin

Note: place this variant into its band. Item: A111U A120C A145U C150G C169G
lower bin

Hey, which category is C82G A120C A145C C150G C169A U176A in, do you know?
middle bin

Class for C82U A111U A120U A145G C150G U176C ?
lower bin

Consider C82A A145U C150U C169G U176A . To which reverse-splicing fitness class does it belong?
middle bin

Categorize the following entry: C82G A111G A120G A145C C169U U176C
middle bin

Sort into band: C82A A111C A120G C150G U176C
middle bin

Band of A111U A120C A145C C150U C169U U176C ?
middle bin

Which bin, given its reverse-splicing fitness, does C82G A111C C150U C169G U176C occupy?
middle bin

Could you place C82U A111C A120G A145U C169A U176A in its proper category? Many thanks.
lower bin

State the band of C82G A111U A120U A145G C150G U176G
lower bin

Which of the defined bands does the recorded reverse-splicing fitness of C82A A111C A120C A145G U176C sit within?
upper bin

Category of C82A A111U A120G A145C C150U U176C :
middle bin

Place this variant in its band: C82U A111U A120G A145U C150A U176A
middle bin

Place this variant in its band: C82G A111G A120G A145U U176C
upper bin

Which class is correct for the following variant? A111C A120U A145C C150A C169A U176C
lower bin

For this variant, which bin applies? C82A A111U C150G C169U U176G
lower bin

Record C82U A111C A120G A145G C150G C169U U176A — which class?
middle bin

Could you tell me which band A111U A120G A145G belongs to?
upper bin

Class (by measured reverse-splicing fitness) for C82A A111C A145G C150A U176C
upper bin

Input A111C C169G U176A ; output its category
upper bin

Looking at C82G A145G C150A U176A , which class would you pick?
upper bin

Which class does C82A A120U A145U C150U U176A fall in?
upper bin

Note: place this variant into its band. Item: A111G A120C A145G C150U C169A U176C
middle bin

// bin(item) where item = C82A A145G C150A C169U U176G
lower bin

Into which bin does this variant go? A111U A120C A145G C150G U176A
middle bin

Exercise: read the entry C82U A111C A120C C150U U176C and state which class it falls under.
middle bin

Class for C82A A111U A120C A145C C150U U176A ?
middle bin

Bin this entry: C82U A111U A120C A145U C150U C169U U176A
middle bin

The entry to classify is C82G A111U A120C A145U C150G U176A ; which class holds it?
lower bin

Band for the recorded reverse-splicing fitness of C82U A111G A120U C150G C169G U176C ?
lower bin

Bin? A111U A120C C150U C169G U176A
middle bin

Which class does C82U A111C A120U A145C C169G U176C fall in?
lower bin

Could you tell me which band C82G A111U A120C A145C C169U U176C belongs to?
middle bin

Categorize the following entry: A111C A120C A145C C150U C169G U176C
middle bin

Sort into band: C82U A120U A145U C169G
lower bin

State the class of the variant shown: A111U A120G A145G C169U U176C
upper bin

Form: Item = C82A A111G C150A C169G U176C ; Class = ?
upper bin

Which of the defined bands does the recorded reverse-splicing fitness of C82A A111U A120U A145U C150U C169U sit within?
lower bin

For this variant, which bin applies? C82A A111U A145C C150G C169A U176A
lower bin

Lab note: sort C82G A111C A120G A145C C150G C169A U176A into the matching reverse-splicing fitness band.
lower bin

Consider C82U A111G A120C A145U C150A C169A . To which reverse-splicing fitness class does it belong?
lower bin

Returns: class label. Input: C82A A111C A120G A145U C150U U176A
middle bin

State the band of A111U A120G A145C C150U U176A
middle bin

Band of A111C A120C C150A C169U ?
upper bin

Where would C82U A120G A145C U176C land among the classes by reported reverse-splicing fitness?
middle bin

Record C82A A111U A120U A145C C169G U176C — which class?
lower bin

Assign a bin to C82U U176A
upper bin

Dear colleague, I would appreciate it if you could identify the bin for C82G A111C A145C C150A C169G U176C and reply at your convenience.
upper bin

Kindly state the category for this variant: C82G A111U A120U A145U C150A C169A U176C
lower bin

Band assignment needed for C82G A111U A145C C169G U176C please.
middle bin

Looking at C82G A111G A120G A145U C150G C169A , which class would you pick?
middle bin

Please classify: A111G A120C A145U C150U C169G U176C
middle bin

Lab note: sort A111G A120C C150G C169G U176C into the matching reverse-splicing fitness band.
lower bin

Form field 'band' for A111U A120C A145U C169G U176G
lower bin

Which class holds C82G A111G A145C C150G C169A ?
lower bin

Class? Entry: C82G A120U C150G C169A U176A
lower bin

Class? Entry: C82G A111C A120G A145C C150A C169G U176C
middle bin

Class label required: C82G A111G A120G A145U C150A C169A
middle bin

Band for the recorded reverse-splicing fitness of C82A A111G A120U A145C C150G C169A U176C ?
lower bin

Which of the defined bands does the recorded reverse-splicing fitness of C82A A120G A145G C150U C169U U176A sit within?
middle bin

Please report the category associated with A120U C169G U176C , nothing else.
upper bin

Hey, which category is C82U A111G A120C A145U C150A C169G in, do you know?
lower bin
